- experiment.summary: chemical genetic growth profiling, strain panel (AID 1159580);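 note: tested at 20 µM; growth read once vehicle control cultures reached saturation at 30 °C; lower values mean less growth of the strain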
- condition.summary: S. cerevisiae deletion strains, growth OD, locus YDL040C, strain nat1
Screen size: about 5,500 compounds; about 2,000 (36%) were called active. Not shown: some 18% with an inconclusive outcome. Cut-off read from the data, not from the text of the source: active = normalized growth mostly below about 0.91 (no sharp cut-off); inconclusive = no clear call, values can overlap the other calls; inactive = mostly above about 0.92. The list shows a part of the results.
// one of active, inactive, no free text

compound: CC1(C)CC[C@]2(C(=O)O)CC[C@]3(C)C(=CCC4[C@@]5(C)CC[C@H](O)[C@@](C)(CO)C5CC[C@]43C)C2C1 (stereo partly drawn)
assigned.category: inactive

compound: CCN1C[C@]2(OC(=O)c3ccccc3NC(C)=O)CCC(OC)[C@]34C1[C@H](CC23)[C@@]1(O)CC(OC)[C@H]2CC4C1(O)[C@H]2OC (stereo partly drawn)
assigned.category: inactive

Call for entry C[C@@H]1OC(O[C@H]2C(O[C@H]3CC[C@@]4(C)C(CC[C@]5(C)C4CC=C4C6CC(C)(C)CC[C@]6(C(=O)O)CC[C@]45C)[C@]3(C)CO)OC[C@H](O)[C@@H]2O)[C@H](O)[C@H](O)[C@H]1O (stereo partly drawn) :
active

Next compound: CC(=O)O[C@@H]1CC[C@@]2(C)C(CC[C@]3(C)C2CC=C2C4CC(C)(C)CC[C@]4(C(=O)O)CC[C@]23C)C1(C)C (stereo partly drawn)
inactive

Let us now turn to Nc1c2c(nc3ccccc13)CCCC2O (stereo not drawn)
inactive

// query: CCC(C)C(NC)C(=O)O (stereo not drawn)
inactive

Also CC1(C)CC(O)C2(C)CCC3(C)C(=CCC4C5(C)CCC(O)C(C)(CO)C5CCC43C)C2C1 (stereo not drawn) ?
inactive

Ok, now CC(CC(=O)C(O)C(C)(C)O)C1C(=O)CC2(C)C3=CCC4C(C)(C)C(OC5OCC(O)C(O)C5O)CCC45CC35C(O)CC12C (stereo not drawn)
inactive
